Target: T1, B-cat-Halo (UniProt P35222 1-781)
T1 sequence (looked up): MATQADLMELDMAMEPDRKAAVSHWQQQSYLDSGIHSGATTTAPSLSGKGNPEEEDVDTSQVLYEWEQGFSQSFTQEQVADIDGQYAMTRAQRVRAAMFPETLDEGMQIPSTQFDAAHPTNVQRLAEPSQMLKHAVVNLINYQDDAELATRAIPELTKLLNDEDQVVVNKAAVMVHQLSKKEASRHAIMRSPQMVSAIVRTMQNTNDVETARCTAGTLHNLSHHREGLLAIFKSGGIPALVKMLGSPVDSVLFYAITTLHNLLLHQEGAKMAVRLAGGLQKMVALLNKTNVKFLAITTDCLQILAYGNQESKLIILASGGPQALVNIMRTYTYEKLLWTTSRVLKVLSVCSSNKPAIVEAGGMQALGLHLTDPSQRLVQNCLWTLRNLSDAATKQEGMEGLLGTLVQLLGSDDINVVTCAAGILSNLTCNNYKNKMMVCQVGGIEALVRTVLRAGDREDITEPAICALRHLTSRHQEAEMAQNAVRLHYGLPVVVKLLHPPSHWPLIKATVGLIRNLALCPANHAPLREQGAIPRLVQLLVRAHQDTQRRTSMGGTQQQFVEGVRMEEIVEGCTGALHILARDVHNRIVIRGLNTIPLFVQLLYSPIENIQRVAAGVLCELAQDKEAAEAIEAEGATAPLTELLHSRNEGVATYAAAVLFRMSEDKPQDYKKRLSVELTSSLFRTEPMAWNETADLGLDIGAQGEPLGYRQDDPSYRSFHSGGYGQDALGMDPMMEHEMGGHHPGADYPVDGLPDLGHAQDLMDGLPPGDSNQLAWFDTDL
Assay: cell-based or functional assay
Starred links: 1 amine or outer side, 2 acyl side, 3 side chain; linkers in the order of their positions; H or OH if unused. Positions of bridges follow the written chain, without caps; N, C: chain ends. Non-standard residues stand in square brackets, D forms with d. Primed or numbered codes have the meaning given here. *: point of attachment. PyrS2(3) = (S)-3-amino-1-((pent-4-en-1-yloxy)carbonyl)pyrrolidine-3-carboxylic acid, stapling residue, C=CCCCOC(=O)N1CC[C@@](N[*:1])(C(=O)[*:2])C1; PyrS2″ = (S)-3-amino-1-((pent-4-en-1-yloxy)carbonyl)pyrrolidine-3-carboxylic acid (stapling residue), C=CCCCOC(=O)N1CC[C@@](N[*:1])(C(=O)[*:2])C1; B5(4) = 2,2-bis(4-pentenyl)glycine = 2-amino-2-(pent-4-en-1-yl)hept-6-enoic acid (stitching residue), C=CCCCC(CCCC=C)(N[*:1])C(=O)[*:2]; B5(5) = 2,2-bis(4-pentenyl)glycine, 2-amino-2-(pent-4-en-1-yl)hept-6-enoic acid (stitching residue), C=CCCCC(CCCC=C)(N[*:1])C(=O)[*:2]; TfeGA = (S)-2-amino-3-((carboxymethyl)(2,2,2-trifluoroethyl)amino)propanoic acid, O=C([C@H](CN(CC(=O)[*:3])CC(F)(F)F)N[*:1])[*:2]; B5″ = 2,2-bis(4-pentenyl)glycine, stitching residue, C=CCCCC(CCCC=C)(N[*:1])C(=O)[*:2]; mPEG2 = N-terminal 3-(2-methoxyethoxy)propanoic acid, COCCOCCC(=O)*; Phe(2-CN) = N#Cc1ccccc1C[C@H](N)C(=O)O; Phe(2-Cl) = N[C@@H](Cc1ccccc1Cl)C(=O)O; Bta = N[C@@H](Cc1csc2ccccc12)C(=O)O; αAllylPro = C=CC[C@@]1(C(=O)O)CCCN1; tBuAla = CC(C)(C)C[C@H](N)C(=O)O; 3Thi = N[C@@H](Cc1ccsc1)C(=O)O; Leu(ol) = CC(C)C[C@H](N)CO; Alaol = C[C@@H](CO)N*; Ms = CS(=O)(=O)*
NanoBRET Abs IC50 reference
Parameter: NanoBRET Abs IC50 (µM)

Binder	Bound type	Result
Ac-[αAllylPro]N[tBuAla][B5(4)]DDAAFL[PyrS2″][3Thi][Bta]Q-NH2 (staple 1-4, 4-11) [I-1221]	=	23.4
Ac-[αAllylPro]D[tBuAla][B5(4)]DDAAFT[PyrS2″][Phe(2-Cl)][Bta]-Alaol (staple 1-4, 4-11) [I-1246]	=	24.3
Ac-[αAllylPro]D[tBuAla][B5(4)]D[TfeGA]AAFT[PyrS2″][Phe(2-Cl)][Bta]-Alaol (staple 1-4, 4-11) [I-1242]	>	20
mPEG2-[αAllylPro]D[tBuAla][B5(5)]DDAAFN[PyrS2″][Phe(2-Cl)][Bta][dT]-NH2 (staple 1-4, 4-11) [I-1253]	>	20
Ac-[αAllylPro]N[tBuAla][B5(4)]DDAAFN[PyrS2″][3Thi][Bta]Q-NH2 (staple 1-4, 4-11) [I-1220]	=	17.3
Ms-[αAllylPro]D[tBuAla][B5″]D[TfeGA]AAFN[PyrS2(3)][3Thi][Bta]Q-NH2 (staple 1-4, 4-11; not fully specified) [I-1219]	>	20
Ac-[αAllylPro]D[tBuAla][B5″]NDAAFL[PyrS2(3)][3Thi][Bta]Q-NH2 (staple 1-4, 4-11) [I-1207]	=	7.5
Ac-[αAllylPro]D[tBuAla][B5(4)]DDAAFT[PyrS2″][Phe(2-Cl)][Bta][Leu(ol)] (staple 1-4, 4-11) [I-1247]	>	20
Ac-[αAllylPro]D[tBuAla][B5″]DDAAFL[PyrS2(3)][Phe(2-CN)][Bta]Q-NH2 (staple 1-4, 4-11) [I-1203]	=	10

Just for reference, patent US20240116985A1 is where these values come from.
